system name: T1, HLA-A*0301 (human)
T1 construct: also called HLA-A3
test details: competition with 125I-labelled probe peptide for purified HLA-A*0301, gel filtration; ratio to standard peptide 941.12
quantity measured: relative binding ratio (IC50 of standard peptide / IC50 of test peptide) (ratio)
Output spec: scalar in ratio, unitless text.

Some entries whose results are on file:
DLSYMPIWK (Synthetic peptide) [HER2/neu peptide, position 607, 9 amino acids (DLSYMPIWK)]    0.0005
EVTAEDGTQR (Synthetic peptide) [HER2/neu peptide, position 321, 10 amino acids (EVTAEDGTQR)]    0.0002

// query Look at this binder and give its reported relative binding ratio (IC50 of standard peptide / IC50 of test peptide). DSECRPRFR (Synthetic peptide) [HER2/neu peptide, position 962, 9 amino acids (DSECRPRFR)]
// result -0.0002
